Provide the recorded TGI for the entries that follow.
# Test system: HS 578T breast
# Method: NCI tumour cell line growth inhibition, 48 h
Numbers only, in µM.

Please review the entries below; each comes with its answer.
>>> measured_result("COc1cc(/C=C2\\C[C@H]3[C@@H]4CC=C5C[C@@H](O)CC[C@]5(C)[C@H]4CC[C@]3(C)[C@H]2O)ccc1OCCN1CCCC1")
25.1
>>> measured_result("C=C(C)C1CC/C(C)=C/CCC2(C)OC2CC/C(CO)=C\\C1O (stereo unspecified)")
53.5
>>> measured_result("CCCCCCCC/C=C/CCCCCCCC1=NC(C)(C)CN1CC(C)O (stereo unspecified)")
4.62
>>> measured_result("CSc1ccc(-c2ccccc(=O)c2O)cc1")
99.7
>>> measured_result("CC1(C)N=C(N)N=C(N)N1c1ccc(CCCCc2ccccc2)c(Cl)c1")
39.4
>>> measured_result("COc1ccc(N=Cc2c(O)ccc3c2oc2cc(Cl)c(O)c(Cl)c23)cc1")
23.1
>>> measured_result("COC1C(CO)OC(n2c3ccccc3c3c4c(c5c6ccccc6[nH]c5c32)C(=O)NC4=O)C(O)C1O (stereo unspecified)")
0.757
>>> measured_result("CCOC(=O)C1=C(C)N=c2s/c(=C\\c3ccccc3O)c(=O)n2C1c1ccc(OC)c2ccccc12 (stereo unspecified)")
13.4

Now for a further compound.
Form field - read-out: TGI; system: HS 578T breast; submitted item: CCCCc1ccc(Nc2nc(Cl)c3ncn(COCCOC(C)=O)c3n2)cc1
52.7

---

# System: HS 578T breast
# Method: NCI tumour cell line growth inhibition, 48 h
Provide the recorded GI50 for the entries that follow.

Please review the entries below; each comes with its answer.
>>> measured_result("CCOC(=O)c1ccccc1OC(=O)NNc1ccccc1")
"> 31900 nM"
>>> measured_result("Cc1ccc(NC(=O)c2ccc(CN3CCN(C)CC3)cc2)cc1Nc1nccc(-c2cccnc2)n1")
"15000 nM"
>>> measured_result("COc1ccc(N=Cc2c(O)ccc3c2oc2cc(Cl)c(O)c(Cl)c23)cc1")
"4450 nM"
>>> measured_result("C=C(C)[C@@H]1CC[C@]2(COCCC#N)CC[C@]3(C)[C@H](CC[C@@H]4[C@@](C)(CCCNCCC#N)[C@H](C(=C)C)CC[C@]43C)[C@@H]12")
"21100 nM"
>>> measured_result("CCN(CC)CCNc1ccc(C)c2sc3cc(Cl)ccc3c(=O)c12")
"1650 nM"

Kindly give each listed record's GI50.
1. COC(=O)[C@@H](C)C[C@H](Cc1cn(C)c2ccccc12)NC(=O)c1csc([C@@H](C[C@H](C(C)C)N(C)C(=O)[C@@H](NC(=O)[C@H]2CCCCN2C)C(C)C)OC(C)=O)n1
2. O=C(COc1ccc(/C=C2\COc3ccccc3C2=O)cc1)Nc1nccs1

1: 10.5 nM; 2: 2740 nM

---

# Tested on: NCI-H23 lung
# Method: NCI tumour cell line growth inhibition, 48 h; in the data active = GI50 below about 0.43 µM; inactive = the rest
Return exactly one item of active, inactive

>>> category("COc1ccc(/C=C(/C(=O)N2CCN(c3ccccc3)CC2)c2cc(OC)c(OC)c(OC)c2)cc1N")
"inactive"
>>> category("CCOC(=O)[C@@H](C)C[C@H](Cc1ccccc1)NC(=O)c1nc([C@@H](C[C@H](C(C)C)N(C)C(=O)[C@@H](NC(=O)[C@H]2CCCCN2C)C(C)C)OC(C)=O)sc1CCOCc1ccccc1")
"active"
>>> category("COc1ccc(N=Cc2c(O)ccc3c2oc2cc(Cl)c(O)c(Cl)c23)cc1")
"inactive"

Then this molecule:
Kindly provide the recorded test outcome for the following molecule: c1ccc([CH2][Sn]([CH2]c2ccccc2)([O]c2cccc3cccnc23)[O]c2cccc3cccnc23)cc1
inactive
